- Method notes: Biodistribution of 177Lu-labeled αMSH analogues in mice bearing B16F10 mouse melanoma
- Format: in vivo, C57BL/6J mice
- Setup conditions: mouse, kidneys, iv, total radioactivity; 24 h p.i., C57BL/6J mice, B16F10 melanoma; read-out: Biodistribution, Kidneys
- Method: The B16-F10 mouse melanoma cells were cultured and inoculated in mice as described in Example 1. For biodistribution studies, approximately 1-2 MBq of ^177Lu-labeled αMSH analogues via tail vein under anesthesia. At 1, 4, 24, and 120 h p.i., the mice were euthanized by CO2 inhalation. Organs/tissues were harvested and the radioactivity was measured as described in Example 1.
Value kind: tissue uptake at 24 h (%ID/g)

compound="CCCC[C@H](NC(=O)CN1CCC(NC(=O)CN2CCN(CC(=O)O)CCN(CC(=O)O)CCN(CC(=O)O)CC2)CC1)C(=O)N[C@H]1CC(=O)NCCCC[C@@H](C(N)=O)N(C)C(=O)[C@H](Cc2c[nH]c3ccccc23)N(C)C(=O)[C@H](CCCNC(=N)N)N(C)C(=O)[C@@H](Cc2ccccc2)NC(=O)[C@H](Cc2c[nH]cn2)N(C)C1=O [^177Lu-labeled CCZ01099, metal not drawn]" reported_measurement=1.61

###

- Method notes: Biodistribution of 68Ga-labeled peptide in mice bearing B16F10 mouse melanoma
- Assay type: in vivo, C57BL/6J mice
- Setup conditions: fat, iv, total radioactivity, 2 h p.i. unblocked, C57BL/6J mice, B16F10 melanoma, read-out: Biodistribution, Fat
Value kind: tissue uptake at 2 h (%ID/g)

compound="CCCC[C@H](NC(=O)CN1CCC(NC(=O)CN2CCN(CC(=O)O)CCN(CC(=O)O)CCN(CC(=O)O)CC2)CC1)C(=O)N[C@H]1CC(=O)NCCCC[C@@H](C(N)=O)N(C)C(=O)[C@H](Cc2c[nH]c3ccccc23)N(C)C(=O)[C@H](CCCNC(=N)N)N(C)C(=O)[C@@H](Cc2ccccc2)NC(=O)[C@H](Cc2c[nH]cn2)N(C)C1=O [^68Ga-labeled CCZ01099, metal not drawn]" value_kind="tissue uptake at 2 h" unit_of_measurement=%ID/g reported_measurement=0.02

###

- Method notes: Biodistribution of 68Ga-labeled peptide in mice bearing B16F10 mouse melanoma
- Assay type: in vivo, C57BL/6J mice
- Setup conditions: C57BL/6J, thyroid, iv, with BMS 470539 (MC1R-specific inhibitor), 0.5 mg co-injected, total radioactivity, 1 h p.i. blocked, co-injection of 0.5 mg BMS 470539, read-out: Biodistribution, Thyroid
Value kind: tissue uptake at 1 h (%ID/g)

compound="CCCC[C@H](NC(=O)CN1CCC(NC(=O)CN2CCN(CC(=O)O)CCN(CC(=O)O)CCN(CC(=O)O)CC2)CC1)C(=O)N[C@H]1CC(=O)NCCCC[C@@H](C(N)=O)N(C)C(=O)[C@H](Cc2c[nH]c3ccccc23)N(C)C(=O)[C@H](CCCNC(=N)N)N(C)C(=O)[C@@H](Cc2ccccc2)NC(=O)[C@H](Cc2c[nH]cn2)N(C)C1=O [^68Ga-labeled CCZ01099, metal not drawn]" value_kind="tissue uptake at 1 h" reported_measurement=0.13

###

- Method notes: Biodistribution of 68Ga-labeled peptide in mice bearing B16F10 mouse melanoma
- Format: in vivo, C57BL/6J mice
- Setup conditions: C57BL/6J, bone, iv, with BMS 470539 (MC1R-specific inhibitor), 0.5 mg co-injected, total radioactivity, 1 h p.i. blocked, co-injection of 0.5 mg BMS 470539, read-out: Biodistribution, Bone
- Protocol: The B16-F10 melanoma cell line (Mus musculus) used in the tumor model was obtained commercially from ATTC (CRL-6475). […] Similar to PET/CT imaging, tumour-bearing mice were injected with 1-2 MBq of ^68Ga-labeled CCZ01099 via tail vein under anesthesia with or without co-injection of 0.5 mg of MC1R-specific inhibitor BMS 470539. […] Minimal background tissue radioactivity accumulation was observed, except for kidney, which is expected as the radiolabeled peptides were cleared through the renal pathway.
Value kind: tissue uptake at 1 h (%ID/g)

compound="CCCC[C@H](NC(=O)CN1CCC(NC(=O)CN2CCN(CC(=O)O)CCN(CC(=O)O)CCN(CC(=O)O)CC2)CC1)C(=O)N[C@H]1CC(=O)NCCCC[C@@H](C(N)=O)N(C)C(=O)[C@H](Cc2c[nH]c3ccccc23)N(C)C(=O)[C@H](CCCNC(=N)N)N(C)C(=O)[C@@H](Cc2ccccc2)NC(=O)[C@H](Cc2c[nH]cn2)N(C)C1=O [^68Ga-labeled CCZ01099, metal not drawn]" reported_measurement=0.17

###

// values below are reported tissue uptake at 120 h
- Method notes: Biodistribution of 177Lu-labeled αMSH analogues in mice bearing SK-MEL-1 human melanoma
- Setup conditions: male, NRG (NOD.Cg-Rag1tm1Mom Il2rgtm1Wjl/SzJ), mouse, thyroid, total radioactivity
Value kind: tissue uptake at 120 h

molecule="CCCC[C@H](NC(=O)CN1CCC(NC(=O)[C@H](CCCCNC(=O)CN2CCN(CC(=O)O)CCN(CC(=O)O)CCN(CC(=O)O)CC2)NC(=O)CNC(=O)CCCc2ccc(-c3ccc(C)cc3)cc2)CC1)C(=O)N[C@H]1CC(=O)NCCCC[C@@H](C(N)=O)N(C)C(=O)[C@H](Cc2c[nH]c3ccccc23)NC(=O)[C@H](CCCNC(=N)N)N(C)C(=O)[C@@H](Cc2ccccc2)NC(=O)[C@H](Cc2c[nH]cn2)NC1=O [^177Lu-labeled CCZ01158, metal not drawn]" value_kind="tissue uptake at 120 h" reported_measurement="5.4 %ID/g"
molecule="CCCC[C@H](NC(=O)CN1CCC(NC(=O)[C@H](CCCCNC(=O)CN2CCN(CC(=O)O)CCN(CC(=O)O)CCN(CC(=O)O)CC2)NC(=O)[C@H](CCC(=O)O)NC(=O)CCCc2ccc(I)cc2)CC1)C(=O)N[C@H]1CC(=O)NCCCC[C@@H](C(N)=O)N(C)C(=O)[C@H](Cc2c[nH]c3ccccc23)NC(=O)[C@H](CCCNC(=N)N)N(C)C(=O)[C@@H](Cc2ccccc2)NC(=O)[C@H](Cc2c[nH]cn2)NC1=O [^177Lu-labeled CCZ01118, metal not drawn]" value_kind="tissue uptake at 120 h" reported_measurement="1.83 %ID/g"
molecule="CCCC[C@H](NC(=O)CN1CCC(NC(=O)[C@H](CCCCNC(=O)CN2CCN(CC(=O)O)CCN(CC(=O)O)CCN(CC(=O)O)CC2)NC(=O)CNC(=O)CCCc2ccc(I)cc2)CC1)C(=O)N[C@H]1CC(=O)NCCCC[C@@H](C(N)=O)N(C)C(=O)[C@H](Cc2c[nH]c3ccccc23)NC(=O)[C@H](CCCNC(=N)N)N(C)C(=O)[C@@H](Cc2ccccc2)NC(=O)[C@H](Cc2c[nH]cn2)NC1=O [^177Lu-labeled CCZ01148, metal not drawn]" value_kind="tissue uptake at 120 h" reported_measurement="12.4 %ID/g"

###

- Method notes: Biodistribution of 177Lu-labeled αMSH analogues in mice bearing B16F10 mouse melanoma
- Type: in vivo, C57BL/6J mice
- Setup conditions: mouse, lungs, iv, total radioactivity; 120 h p.i., C57BL/6J mice, B16F10 melanoma; read-out: Biodistribution, Lungs
Value kind: tissue uptake at 120 h (%ID/g)

compound="CCCC[C@H](NC(=O)CN1CCC(NC(=O)[C@H](CCCCNC(=O)CN2CCN(CC(=O)O)CCN(CC(=O)O)CCN(CC(=O)O)CC2)NC(=O)[C@H](CCC(=O)O)NC(=O)CCCc2ccc(I)cc2)CC1)C(=O)N[C@H]1CC(=O)NCCCC[C@@H](C(N)=O)N(C)C(=O)[C@H](Cc2c[nH]c3ccccc23)N(C)C(=O)[C@H](CCCNC(=N)N)N(C)C(=O)[C@@H](Cc2ccccc2)NC(=O)[C@H](Cc2c[nH]cn2)N(C)C1=O [^177Lu-labeled CCZ01088, metal not drawn]" reported_measurement=0.1

###

- Method notes: Biodistribution of 177Lu-labeled αMSH analogues in mice bearing B16F10 mouse melanoma
- Assay type: in vivo, C57BL/6J mice
- Setup conditions: mouse, bone, iv, total radioactivity; 1 h p.i., C57BL/6J mice, B16F10 melanoma; read-out: Biodistribution, Bone
Value kind: tissue uptake at 1 h (%ID/g)

compound="CCCC[C@H](NC(=O)CN1CCC(NC(=O)CN2CCN(CC(=O)O)CCN(CC(=O)O)CCN(CC(=O)O)CC2)CC1)C(=O)N[C@H]1CC(=O)NCCCC[C@@H](C(N)=O)N(C)C(=O)[C@H](Cc2c[nH]c3ccccc23)NC(=O)[C@H](CCCNC(=N)N)N(C)C(=O)[C@@H](Cc2ccccc2)NC(=O)[C@H](Cc2c[nH]cn2)NC1=O [^177Lu-labeled CCZ01106, metal not drawn]" value_kind="tissue uptake at 1 h" reported_measurement=0.18
compound="CCCC[C@H](NC(=O)CN1CCC(NC(=O)[C@H](CCCCNC(=O)CN2CCN(CC(=O)O)CCN(CC(=O)O)CCN(CC(=O)O)CC2)NC(=O)[C@H](CCC(=O)O)NC(=O)CCCc2ccc(I)cc2)CC1)C(=O)N[C@H]1CC(=O)NCCCC[C@@H](C(N)=O)N(C)C(=O)[C@H](Cc2c[nH]c3ccccc23)N(C)C(=O)[C@H](CCCNC(=N)N)N(C)C(=O)[C@@H](Cc2ccccc2)NC(=O)[C@H](Cc2c[nH]cn2)N(C)C1=O [^177Lu-labeled CCZ01088, metal not drawn]" value_kind="tissue uptake at 1 h" reported_measurement=0.98
compound="CCCC[C@H](NC(=O)CN1CCC(NC(=O)[C@H](CCCCNC(=O)CN2CCN(CC(=O)O)CCN(CC(=O)O)CCN(CC(=O)O)CC2)NC(=O)[C@H](CCC(=O)O)NC(=O)CCCc2ccc(I)cc2)CC1)C(=O)N[C@H]1CC(=O)NCCCC[C@@H](C(N)=O)N(C)C(=O)[C@H](Cc2c[nH]c3ccccc23)NC(=O)[C@H](CCCNC(=N)N)N(C)C(=O)[C@@H](Cc2ccccc2)NC(=O)[C@H](Cc2c[nH]cn2)NC1=O [^177Lu-labeled CCZ01118, metal not drawn]" value_kind="tissue uptake at 1 h" reported_measurement=0.96
